Entries and their measured % impurities follow.
test: Stability test of BTG 1640 salts: evaluation of total impurities; type: physicochemical; details: T = 25° C., humidity 60% RH; time 0
Where a name gives a salt, the structure may show the parent alone.
Endpoint label: % impurities (%)

>>> reported_result("CN1OC2CCCC(=O)C2C1Cc1ccccc1.O=C(O)CCC(=O)O (centres unmarked) [BTG 1640 succinate]")
0.77
>>> reported_result("CN1OC2CCCC(=O)C2C1Cc1ccccc1 (centres unmarked) [BTG 1640 fumarate]")
0.49
>>> reported_result("CN1OC2CCCC(=O)C2C1Cc1ccccc1.Cl (centres unmarked) [BTG 1640 hydrochloride]")
0.36
>>> reported_result("CN1OC2CCCC(=O)C2C1Cc1ccccc1.O=C(O)/C=C\\C(=O)O (centres unmarked) [BTG 1640 maleate]")
0.23
>>> reported_result("CN1OC2CCCC(=O)C2C1Cc1ccccc1.CS(=O)(=O)O (centres unmarked) [BTG 1640 methanesulphonate]")
0.42

====

Entries and their measured Purity % follow.
assay: Stability test of BTG 1640 salts: purity under preservation conditions; type: physicochemical; details: T = 5° C.; time 9 (months)
Structures can show the parent of a compound that is named as a salt.
Endpoint label: Purity % (%)

>>> reported_result("CN1OC2CCCC(=O)C2C1Cc1ccccc1.O=C(O)CCC(=O)O (centres unmarked) [BTG 1640 succinate]")
96.8
>>> reported_result("CN1OC2CCCC(=O)C2C1Cc1ccccc1.O=C(O)/C=C\\C(=O)O (centres unmarked) [BTG 1640 maleate]")
99.8
>>> reported_result("CN1OC2CCCC(=O)C2C1Cc1ccccc1.CS(=O)(=O)O (centres unmarked) [BTG 1640 methanesulphonate]")
99.1
>>> reported_result("CN1OC2CCCC(=O)C2C1Cc1ccccc1 (centres unmarked) [BTG 1640 fumarate]")
99.9
>>> reported_result("CN1OC2CCCC(=O)C2C1Cc1ccccc1.Cl (centres unmarked) [BTG 1640 hydrochloride]")
99.6

====

assay: Stability test of BTG 1640 salts: evaluation of total impurities; type: physicochemical; settings: T = 40° C., humidity 75% RH; time 0
Where a name gives a salt, the structure may show the parent alone.
Returns one of 1 (yes) or 0 (no); 1 (yes) when % impurities is >= 0.4%.

>>> category("CN1OC2CCCC(=O)C2C1Cc1ccccc1.O=C(O)CCC(=O)O (centres unmarked) [BTG 1640 succinate]")
"1 (yes)"
>>> category("CN1OC2CCCC(=O)C2C1Cc1ccccc1.CS(=O)(=O)O (centres unmarked) [BTG 1640 methanesulphonate]")
"1 (yes)"
>>> category("CN1OC2CCCC(=O)C2C1Cc1ccccc1 (centres unmarked) [BTG 1640 fumarate]")
"1 (yes)"
>>> category("CN1OC2CCCC(=O)C2C1Cc1ccccc1.O=C(O)/C=C\\C(=O)O (centres unmarked) [BTG 1640 maleate]")
"0 (no)"
>>> category("CN1OC2CCCC(=O)C2C1Cc1ccccc1.Cl (centres unmarked) [BTG 1640 hydrochloride]")
"0 (no)"

====

assay: Stability test of BTG 1640 salts: evaluation of total impurities; format: physicochemical; conditions: T = 5° C.; time 9 (months)
Where a name gives a salt, the structure may show the parent alone.
Endpoint label: % impurities (%)

>>> reported_result("CN1OC2CCCC(=O)C2C1Cc1ccccc1 (centres unmarked) [BTG 1640 fumarate]")
0.10
>>> reported_result("CN1OC2CCCC(=O)C2C1Cc1ccccc1.CS(=O)(=O)O (centres unmarked) [BTG 1640 methanesulphonate]")
0.91
>>> reported_result("CN1OC2CCCC(=O)C2C1Cc1ccccc1.O=C(O)CCC(=O)O (centres unmarked) [BTG 1640 succinate]")
3.20
>>> reported_result("CN1OC2CCCC(=O)C2C1Cc1ccccc1.Cl (centres unmarked) [BTG 1640 hydrochloride]")
0.31
>>> reported_result("CN1OC2CCCC(=O)C2C1Cc1ccccc1.O=C(O)/C=C\\C(=O)O (centres unmarked) [BTG 1640 maleate]")
0.19
